- SYSTEM_NAME: T1, human interleukin 13 receptor subunit alpha 2 (IL-13RA2) (human, UniProt Q14627 27-380)
- T1 construct: whole, on cells; also called IL-13Rα2; CD213A2
- T1 sequence (looked up): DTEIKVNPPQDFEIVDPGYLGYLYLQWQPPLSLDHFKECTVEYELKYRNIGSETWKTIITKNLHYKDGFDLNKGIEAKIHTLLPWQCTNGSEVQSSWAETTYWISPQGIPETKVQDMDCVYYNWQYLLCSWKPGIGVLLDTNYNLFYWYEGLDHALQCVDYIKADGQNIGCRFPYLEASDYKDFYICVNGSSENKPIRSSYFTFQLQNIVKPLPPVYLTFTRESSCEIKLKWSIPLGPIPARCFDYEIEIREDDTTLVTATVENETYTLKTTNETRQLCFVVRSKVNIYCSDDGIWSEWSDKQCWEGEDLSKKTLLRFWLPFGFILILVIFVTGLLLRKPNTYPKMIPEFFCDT
- MEASUREMENT_DESCRIPTION: FACS on A375 cells
ASSAY_METRIC: Top (MFI)
Field format: number, assumed MFI, no unit text.

xi62F6A8 hIgG1 (antibody, V domains shown) VH: QVQIQQSGAELARPGASVMLSCKASGYTFTDYWMQWIKQRPGQGLEGIGAIYPGDGDTAYNQKFRGKATLTADKSSSTAYMQLNSLASEDSAVYFCARGATLLRPFPFWGQGTLVTVSA VL: DIVMTQSHKFMSTSVGDRVSITCKASQDVSTAVAWYQQKPGQSPKLLIYSASYRYAGVPDRFTGSGSGTDFTFTISSVQAEDLAVYSCQQHYSIPPTFGGGTKLEIK ... 15800

Q: Give the reported value of Top (MFI) for this record: xi61H8C1 hIgG1 (antibody, V domains shown) VH: QVQLQQSGAELARPGASVMLSCKASGYTFTSYWTQWIKQRPGQGLEGIGAIYPGDDDTSYNQKFKGKATLTADKSSSTAYMQLNSLTSEDSAVYYCARGATLLRPFPYWGQGTLVTVSA VL: DIVMTQSHKFMSTSVGDRVSITCKASQDVSTAVAWYQQKPGQSPKLLIYSASYRYTGVPDRFTGSGSGTDFTFTISSVQAEDLAVYSCQQHYSIPPTFGGGTKLEIK
Ans: 15600

Q: Give the measured Top (MFI) for xi51G2B3 hIgG1 (antibody, V domains shown) VH: QVQLQQSGPELVKPGASVKISCKASGYAFSDSWMNWVKQRPGQGLEWIGRIYPGDGDTNYNGKFKGKATLTADKSSNTAYMQLSSLTSVDSAVYFCARSWNGSPWFPYWGQGTLVTVSA VL: DVLMTQTPLSLPVSLGDQASISCRSSQTIAHRNGNTYLEWYLQKPGQSPKLLLYKVSNRFSGVPDRFSGSGSGTDFTLKISRVEAEDLGVYYCFQGSHVTWTFGGGTKLEIK
Ans: 15500
